Target: T1, human Claudin 18.2 (human, UniProt P56856-2 1-261)
T1 construct: whole, on cells
T1 sequence (looked up): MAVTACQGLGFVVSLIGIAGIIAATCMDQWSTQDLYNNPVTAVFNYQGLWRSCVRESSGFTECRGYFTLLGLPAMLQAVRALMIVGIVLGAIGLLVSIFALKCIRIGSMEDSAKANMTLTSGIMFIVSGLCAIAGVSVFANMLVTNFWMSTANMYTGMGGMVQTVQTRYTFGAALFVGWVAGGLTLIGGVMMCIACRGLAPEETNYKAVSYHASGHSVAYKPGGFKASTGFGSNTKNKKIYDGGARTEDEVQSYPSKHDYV
Assay: flow cytometry (iQue) on cells, antibody from 100 nM in 5-fold steps; cell line not named in Example 5
pEC50: −log10 of the molar value.
# reported pEC50; entries follow

Binder | pEC50
h15F9.v16 (antibody, V domains shown, Humanized; also called 15F9VLv1 + 15F9VHv6) VH: QIQLVQSGSELKKPGASVKVSCKASGYTFTNYGINWVRQAPGQGLEWMGWINPGTGETTYAEGFTGRFVLSWDTSVSTAYLQISSLKAEDTAVYFCARLYYGNRFDSWGQGTLVTVSS VL: DIVMTQSPDSLAVSLGERATINCKSSQSLLNSGNQRNYLTWYQQKPGQPPKLLIYWASTRESGVPDRFSGSGSGTDFTLTISSLQAEDVAVYYCQNAYYYPLTFGGGTKVEIK | 9.15
15F9 (antibody, V domains shown, also called Clone 15F9; 15F9 Chimera) VH: EIQLVQSGPELKKPGETVKISCKASGYTFTNYGINWVKQAPGKGLKWMGWINPNTGETTYAEEFKGRFALSWKTSASTAYLQINNLKNEDTATYFCARLYYGNRFDYWGQGTTLTVSS VL: DIVMTQSPSSLTVTAGEKVTMSCKSSQSLLNSGNQRNYLTWYQQKPGQPPKLLIYWASTRESGVPDRFTGSGSGTDFTLTISSVQAEDLAVYYCQNAYYYPLTFGAGTKLEIK | 8.48
18D10.V13 (antibody, V domains shown, Humanized; also called 18D10VLv1 + 18D10VHv3) VH: QVQLQESGPGLVKPSETLSLTCTVSGGSISSNYAWNWIRQPPGKGLEWIGYINYSGNTNYNPSLKSRVTISRDTSKNQFSLKLSSVTAADTAVYYCATSYYGNSFIYWGQGTLVTVSS VL: DIVMTQSPDSLAVSLGERATINCKSSQSLLNSGNQKNYLTWYQQKPGQPPKLLIYWASTRESGVPDRFSGSGSGTDFTLTISSLQAEDVAVYYCQNAYSFPWTFGQGTKVEIK | 9.04

Provenance of the data: patent US20220372112A1
